Below, each entry is listed alongside its reported EC50.
- tested_on: Candida albicans (Cat. No. 10231, ATCC) whole cells (Candida albicans)
- procedure_text: FACS, IgG on fixed C. albicans cells, concentration at 50% maximum binding
Record the value in nM, omitting the unit from your answer.

Worked examples follow.
>  <binder>
2G12 IgG (wildtype, made in house) (antibody, V domains shown) VH: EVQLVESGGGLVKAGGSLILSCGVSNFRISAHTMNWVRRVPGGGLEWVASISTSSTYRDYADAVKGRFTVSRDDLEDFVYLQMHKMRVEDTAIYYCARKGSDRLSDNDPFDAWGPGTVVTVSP VL: DVVMTQSPSTLSASVGDTITITCRASQSIETWLAWYQQKPGKAPKLLIYKASTLKTGVPSRFSGSGSGTEFTLTISGLQFDDFATYHCQHYAGYSATFGQGTRVEIKR

>  <unit_of_measure>
nM

>  <EC50>
150

$$$$
>  <binder>
2G12 Polymun (Cat. No. AB002, Polymun Scientific) (antibody, V domains shown) VH: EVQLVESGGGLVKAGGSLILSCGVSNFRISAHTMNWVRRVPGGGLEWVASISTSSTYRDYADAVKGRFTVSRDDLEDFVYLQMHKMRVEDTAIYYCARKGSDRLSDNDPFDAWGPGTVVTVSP VL: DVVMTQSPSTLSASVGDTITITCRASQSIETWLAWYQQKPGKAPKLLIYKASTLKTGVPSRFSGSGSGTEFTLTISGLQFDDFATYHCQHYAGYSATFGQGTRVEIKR

>  <unit_of_measure>
nM

>  <EC50>
500

$$$$
>  <binder>
1F8 IgG (antibody, V domains shown) VH: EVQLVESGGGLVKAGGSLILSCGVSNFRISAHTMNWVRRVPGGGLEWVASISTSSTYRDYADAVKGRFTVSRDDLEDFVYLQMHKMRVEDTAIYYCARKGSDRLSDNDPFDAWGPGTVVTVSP VL: GVVMTQSPSTLSASVGDTITITCRASQSIETWLAWYQQKPGKAPKLLIYKASTLKTGVPSRFSGSGSGTEFTLTISGLQFDDFATYHCQHYLPFNATFGQGTRVEIKR

>  <unit_of_measure>
nM

>  <EC50>
15.1

$$$$

Let us examine a further case.
Record summary for 1H12 IgG (antibody, V domains shown) VH: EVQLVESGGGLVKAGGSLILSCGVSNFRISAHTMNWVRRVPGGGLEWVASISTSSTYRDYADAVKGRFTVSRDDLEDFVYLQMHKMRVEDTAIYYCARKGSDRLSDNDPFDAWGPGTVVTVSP VL: GVVMTQSPSTLSASVGDTITITCRASQSIETWLAWYQQKPGKAPKLLIYKASTLKTGVPSRFSGSGSGTEFTLTISGLQFDDFATYHCQHYMPYRASFGQGTRVEIKR : reported EC50 = 5.2

Values were extracted from patent US20110189183A1.
